Values were extracted from paper PMC7968997.

# target-desc: T1, RRM2 analog R122A (Homo sapiens, UniProt Q8IUH3 23-202, F29A;F70A;R122A)
# T1 sequence: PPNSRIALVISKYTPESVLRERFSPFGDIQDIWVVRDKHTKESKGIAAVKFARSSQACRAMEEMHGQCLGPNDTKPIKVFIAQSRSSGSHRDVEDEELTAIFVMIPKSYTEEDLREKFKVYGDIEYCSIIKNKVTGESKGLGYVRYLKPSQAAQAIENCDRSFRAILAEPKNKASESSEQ
# measurement-notes: fluorescence polarization
measured-metric: Kd

Problem: Bench note: what Kd did GGACGG (ssRNA) [GGACGG RNA] show?
Result: 18.7 µM
